Assign Rate of inhibition to each entry below.
# Test system: A549
# PROTOCOL_TEXT: In vitro rate of inhibition of A-549 tumor cell growth at 10E-5 mol/L
# Type: functional, Homo sapiens
# CONDITIONS_USED: at 10 µM
Give bare numbers, in %.

The examples below pair each entry with its known result.
INSERT INTO results (molecule, readout_label, display_unit, result_value) VALUES
  ('CCOC(=O)c1ccc(NC(=O)N2N=C(C)N(C(=O)Nc3ccc(C(=O)OCC)cc3)N=C2C)cc1', 'Rate of inhibition', '%', 28.8),
  ('Cc1cccnc1-c1nnc(-c2ncccc2C)nn1', 'Rate of inhibition', '%', 0),
  ('CCCCCCCCCCCCC/C=C/[C@@H](O)[C@H](CO)NC(C)=O', 'Rate of inhibition', '%', 9.2),
  ('CC1=NN(C(=O)Nc2cc(Cl)cc(Cl)c2)C(C)=NN1C(=O)Nc1cc(Cl)cc(Cl)c1', 'Rate of inhibition', '%', 0),
  ('CCCC1=NN(C(=O)OC2CCCCC2)C(CCC)N=N1 (stereo not drawn)', 'Rate of inhibition', '%', 5.2);

// each molecule listed below needs its Rate of inhibition
1. CC1=NN(C(=O)Nc2ccccc2Cl)C(C)=NN1C(=O)Nc1ccccc1Cl
2. CCCC1NN(C(C)=O)C(CCC)NN1C(C)=O (stereo not drawn)

Result:
1. 0
2. 8.6

Hi team, please reply with Rate of inhibition for each item in this list.
1. CC1=NN(C(=O)Nc2cccc(C(F)(F)F)c2)C(C)=NN1C(=O)Nc1cccc(C(F)(F)F)c1
2. CC1=NN(C(=O)Nc2ccc(Cl)cc2)C(C)=NN1C(=O)Nc1ccc(Cl)cc1
3. CC1=NN(C(=O)Nc2ccccc2)C(C)=NN1C(=O)Nc1ccccc1
4. CCCC1=NN(C(=O)Nc2ccccc2)C(CCC)=NN1C(=O)Nc1ccccc1
5. CCCC1=NN(C(=O)OCC)C(CCC)N=N1 (stereo not drawn)
6. CCCCCOC(=O)N1N=C(C)N=NC1C (stereo not drawn)
7. COc1ccccc1C(=O)N1N=C(c2ccccc2)NN=C1c1ccccc1

Result:
1. 10.7
2. 14.8
3. 77.9
4. 78.3
5. 0
6. 4.6
7. 72.6
